Give measured melting point for each item. Keep answers brief.

I have this compound here, Nc1cc(Nc2ccc(OC(F)(F)F)cc2)nc(-c2c(C3CC3)nc3ccc(F)cn23)c1 [compound 367] , and I need its recorded melting point.
166 to 168 °C

I have this compound here, Cc1nc2ccc(F)cn2c1-c1cc(C#N)cc(Nc2ccc(OC(F)F)c(F)c2)n1 [compound 311] , and I need its recorded melting point.
231 to 233 °C

I have this compound here, FC(F)Oc1ccc(Nc2cncc(-n3c(C(F)F)nc4ccccc43)n2)cc1 [compound 482] , and I need its recorded melting point.
213 to 216 °C

I have this compound here, Cc1csc(Nc2cccc(-c3c(C(F)(F)F)nc4ccccn34)n2)n1 [compound 148] , and I need its recorded melting point.
259 to 261 °C

I have this compound here, Cc1cc(Nc2cc(C#N)cc(-c3c(C(F)F)nc4ccc(F)cn34)n2)cnc1OC(F)F [compound 468] , and I need its recorded melting point.
239 to 241 °C

I have this compound here, Cc1noc(C)c1-c1cncc(Nc2ccc(C(F)(F)F)cc2)n1 [compound 127] , and I need its recorded melting point.
208 to 210 °C

I have this compound here, Cc1nn(CC(F)(F)F)c(C)c1-c1cncc(Nc2ccc(C(F)(F)F)cc2)n1 [compound 253] , and I need its recorded melting point.
90 to 91 °C

I have this compound here, Cc1csc(Nc2cncc(-c3c(C(F)(F)F)nc4ccccn34)n2)n1 [compound 96] , and I need its recorded melting point.
317 to 319 °C

* * *

Give measured EC50 for each item. Keep answers brief.
system: Bmi-1 protein; test: Sandwich ELISA Assay (Bmi-1 protein level in HT-1080 cells after compound treatment); assay type: cell-based; settings: read-out: ELISA EC50 value for Bmi-1 protein, Table 1, Bmi-1 sandwich ELISA

# returns recorded EC50 (system: Bmi-1 protein) for "FC(F)(F)c1ccc(Nc2cccc(-c3c(C(F)(F)F)nc4ncccn34)n2)cc1"
0.01 to 0.1 µM

# returns recorded EC50 (system: Bmi-1 protein) for "COc1ccc(Nc2ccc(C#N)c(-c3c(C(F)(F)F)nc4ccccn34)n2)cc1"
0.1 to 3 µM

# returns recorded EC50 (system: Bmi-1 protein) for "FC(F)(F)c1ccc(Nc2cncc(-c3c(C(F)(F)F)nc4n3CCCC4)n2)cc1"
0.001 to 0.01 µM

# returns recorded EC50 (system: Bmi-1 protein) for "Cc1nc2ccccc2n1-c1cc(N)cc(Nc2ccc(C(F)(F)F)cc2)n1"
0.01 to 0.1 µM

# returns recorded EC50 (system: Bmi-1 protein) for "Cc1ccc(-c2c(C(F)(F)F)nc3ccccn23)nc1Nc1ccc(C(F)(F)F)cc1"
0.1 to 3 µM

# returns recorded EC50 (system: Bmi-1 protein) for "CCc1nc(C)cn1-c1cncc(Nc2ccc(C(F)(F)F)cc2)n1"
0.1 to 3 µM

# returns recorded EC50 (system: Bmi-1 protein) for "CCn1nc(C)c(-c2cncc(Nc3ccc(C(F)(F)F)cc3)n2)c1C"
0.001 to 0.01 µM
